Target or system Histamine H3 receptor (Homo sapiens); metric IC50; compiled from varied reports.
parameter: IC50 (nM)

INSERT INTO assay_data (compound, parameter, qualifying_sign, endpoint_value) VALUES
  ('N#Cc1ccc(C(=O)N2CCC3(CC2)CC(C(=O)N2CCCN(C4CCC4)CC2)C3)cc1', 'IC50', '=', 5.28),
  ('CN(CCN1CCCCC1)C(=O)[C@H]1CC[C@@]2(CC1)OC(=O)c1cc(-c3ccccn3)ccc12', 'IC50', '=', 0.08),
  ('Cc1cncc(C(=O)N2CCC3(CC2)CC(C(=O)N2CCN(C4CCC4)CC2)C3)c1', 'IC50', '=', 12.5),
  ('CC(C)N1CCC2(CC1)CC2C(=O)N1CCN(C2CCCCC2)CC1 (stereo not drawn)', 'IC50', '=', 19.3),
  ('Cc1cc(C(=O)N2CCC3(CC2)CC(C(=O)N2CCN(C(C)C)CC2)C3)ccn1', 'IC50', '=', 66.4),
  ('O=C(CN1CCC(F)(F)C1)N1CC(C(=O)N2CCCN(C3CCC3)CC2)C1', 'IC50', '<', 50),
  ('O=C(CN1CCC(F)(F)CC1)N1CC(C(=O)N2CCCN(C3CCC3)CC2)C1', 'IC50', '<', 50),
  ('CS(=O)(=O)N1CCC2(CC1)CC(C(=O)N1CCN(C3CCCC3)CC1)C2', 'IC50', '=', 63),
  ('O=C(C1CC12CCN(C1CCCSC1)CC2)N1CCN(C2CCC2)CC1 (stereo not drawn)', 'IC50', '=', 14.3),
  ('O=C(C1CN(S(=O)(=O)CC2CCCC2)C1)N1CCCN(C2CCC2)CC1', 'IC50', '<', 50),
  ('O=C([C@@H]1C[C@H]1c1cccc(N2CCCC2=O)c1)N1CCN(C2CCC2)CC1 (single isomer, unassigned; enantiomer 2)', 'IC50', '>', 1800),
  ('CC(C)S(=O)(=O)N1CCC2(CC1)CC(C(=O)N1CCN(C3CCC3)CC1)C2', 'IC50', '=', 15.4),
  ('O=C1COC2(CCN(c3ccc(OC4CCN(C5CCC5)CC4)nc3)CC2)CN1c1cccnc1', 'IC50', '=', 0.66),
  ('COC1CCC(C(=O)N2CC(C(=O)N3CCCN(C4CCC4)CC3)C2)CC1 (mixture of isomers)', 'IC50', '<', 50),
  ('O=C(CN1CCS(=O)(=O)CC1)N1CC(C(=O)N2CCCN(C3CCC3)CC2)C1', 'IC50', '<', 50),
  ('Cc1nnc(-c2ccc(C(=O)N3CC(C(=O)N4CCCN(C5CCC5)CC4)C3)cc2)o1', 'IC50', '<', 50),
  ('O=C(c1ccccc1)N1CCC2(CC1)CC(C(=O)N1CCCN(C3CCC3)CC1)C2', 'IC50', '=', 12.7),
  ('O=C(C1CC12CCN(CCc1ccccc1)CC2)N1CCN(C2CCCCC2)CC1 (single isomer, unassigned)', 'IC50', '=', 16.4),
  ('Cc1ccc(C(=O)N2CCC3(CC2)CC(C(=O)N2CCN(C4CCC4)CC2)C3)cn1', 'IC50', '=', 26.2),
  ('CC(C)N1CCN(C(=O)C2CC3(CCN(C(=O)c4ccncc4)CC3)C2)CC1', 'IC50', '=', 61.9),
  ('CC(C)N1CCCN(C(=O)C2CC3(CCN(C(=O)c4ccncc4)CC3)C2)CC1', 'IC50', '=', 161),
  ('O=C(C1CN(C(=O)N2CCOCC2)C1)N1CCCN(C2CCC2)CC1', 'IC50', '<', 50),
  ('C[C@@H]1CCCN1CCCOc1ccc(N2CCC3(CC2)CN(c2ccc(S(C)(=O)=O)cc2)C(=O)CO3)cc1', 'IC50', '=', 0.19),
  ('O=C(CC1CC1)N1CC(C(=O)N2CCCN(C3CCC3)CC2)C1', 'IC50', '<', 50),
  ('CN1CCC(N2CCC3(CC2)CC3C(=O)N2CCN(C3CCCCC3)CC2)CC1 (stereo not drawn)', 'IC50', '=', 22.5),
  ('C[C@H]1CCCN1CCCOc1ccc(N2CCC3(CC2)CN(c2cnn(C)c2)C(=O)CO3)cc1', 'IC50', '=', 1.2),
  ('O=C(Cn1cccn1)N1CC(C(=O)N2CCCN(C3CCC3)CC2)C1', 'IC50', '<', 50),
  ('O=C(CN1CCCCC1)N1CC(C(=O)N2CCCN(C3CCC3)CC2)C1', 'IC50', '<', 50),
  ('O=C(C1CC12CCN(c1ccncc1)CC2)N1CCN(C2CCCCC2)CC1 (stereo not drawn)', 'IC50', '=', 85.3),
  ('O=C(C1CN(C(=O)N2CCCCC2)C1)N1CCCN(C2CCC2)CC1', 'IC50', '<', 50),
  ('NC(=O)c1ccc([C@@H]2C[C@H]2C(=O)N2CCN(C3CCC3)CC2)cc1 (single isomer, unassigned; enantiomer 2)', 'IC50', '=', 834),
  ('O=C(c1ccc(-n2cncn2)cc1)N1CC(C(=O)N2CCCN(C3CCC3)CC2)C1', 'IC50', '<', 50);
